System: Klebsiella pneumoniae ATCC 51504 (KP4)
// reported MIC per item

Below, each entry is followed by its recorded MIC result.
- SMILES STRING: "Cc1cc(-c2[nH]c(N)nc2-c2cc(F)c3c(c2)NCCO3)ccn1"
  PROPERTY MEASURED: "MIC"
  RESULT: "≤ 1 µM"
- SMILES STRING: "Cc1cc(-c2[nH]c(N)nc2-c2ccc3c(c2)N(C(=O)CN)CCO3)ccn1"
  PROPERTY MEASURED: "MIC"
  RESULT: "1 to 10 µM"
- SMILES STRING: "Cc1cc(-c2[nH]c(N)nc2-c2ccc3c(c2)N(C(C)C)CCO3)ccn1"
  PROPERTY MEASURED: "MIC"
  RESULT: "≤ 1 µM"

Exam item: What reported MIC corresponds to Cc1cc(-c2[nH]c(N)nc2-c2cc(F)c3c(c2)OCCO3)ccn1 on Klebsiella pneumoniae ATCC 51504 (KP4)?
Marked response: ≤ 1 µM

Exam item: What reported MIC corresponds to Cc1cc(-c2[nH]c(N)nc2-c2ccc3c(c2)N(C2CC2)CCO3)ccn1 on Klebsiella pneumoniae ATCC 51504 (KP4)?
Marked response: ≤ 1 µM
